This section presents compounds with their documented melting point values.
Return type: number; implicit unit °C.

*Q* Find the recorded melting point belonging to C=C(C)c1ccc(C)c2ccc(C=O)c-2c1 and report it.
*A* 58

*Q* Dear colleague, I am looking for the recorded melting point of the following compound: COc1nsnc1NS(=O)(=O)c1ccc(N)cc1
*A* 150

*Q* Value lookup for melting point; key = O=C(O)COc1nc(Cl)c(Cl)cc1Cl
*A* 150

*Q* Any idea what melting point was measured for Nc1ccc(C=CC(=O)O)cc1 ?
*A* 122

*Q* Query (compound): S=C1SCN(Cc2ccccc2)CN1Cc1ccccc1 ; field requested: melting point
*A* 102

*Q* Need melting point, item O=C(NCCc1ccccn1)c1cc([N+](=O)[O-])cc([N+](=O)[O-])c1
*A* 120
